- ASSAY EXPLANATION: Metabolic stability in rat liver microsomes assessed as half life at 1 uM measured upto 60 mins by LC-MS/MS analysis
- Type: ADME, Microsome
EXPERIMENTAL ENDPOINT: half-life at 1 µM (min)
All answers are understood in min, so give the number only.

input: Provide measured half-life at 1 µM value, entry: `COc1cc(Nc2nccc(N3CCCn4nc(C#C[C@@](C)(O)c5nccs5)cc43)n2)cc(OC)c1`
output: 25.9

###

- ASSAY EXPLANATION: Clearance in C57BL/6J mouse at 10 mg/kg, iv measured upto 24 hrs by LC-MS/MS analysis
- Assay type: ADME, organism-based
- CONDITION DESCRIPTION: in vivo
EXPERIMENTAL ENDPOINT: clearance (mL/min/kg)
All answers are understood in mL/min/kg, so give the number only.

input: Provide measured clearance value, entry: `COc1cc(Nc2nccc(N3CCCn4nc(C#C[C@@](C)(O)c5nccs5)cc43)n2)cc(OC)c1`
output: 56.2
